# Species on record: Rattus norvegicus
# Assay comment: Open TG-GATES - Regimen: Single
# Format: toxicity, organism-based, Sprague-Dawley
# Parameters: regimen Single, gender Male, age 6 weeks
# Condition set: in vivo, po, 100 mg/kg, 9 h, tissue Blood, route gavage, dose level Low
Attribute measured: Eos (%)
Record the value in %, omitting the unit from your answer.

The compound identified as CCc1cc(C(N)=S)ccn1 [ETHIONAMIDE] registered its Eos at 1.4

The compound identified as Clc1ccccc1CN1CCc2sccc2C1 [TICLOPIDINE] registered its Eos at 0.6

The compound identified as O=C(O)c1cc(/N=N/c2ccc(S(=O)(=O)Nc3ccccn3)cc2)ccc1O [SULFASALAZINE] registered its Eos at 1

The compound identified as C[C@H](CS)C(=O)N1CCC[C@H]1C(=O)O [CAPTOPRIL] registered its Eos at 1

The compound identified as O=C(O)c1cn(C2CC2)c2cc(N3CCNCC3)c(F)cc2c1=O [CIPROFLOXACIN] registered its Eos at 1

----------
# Species: Rattus norvegicus
# Assay comment: Open TG-GATES - Regimen: Single
# Type: toxicity, organism-based, Sprague-Dawley
# Design: regimen Single, gender Male, age 6 weeks
# Condition set: in vivo, po, 100 mg/kg, 3 h, tissue Blood, route gavage, dose level Low
Attribute measured: WBC (x10_2/uL)
Record the value in x10_2/uL, omitting the unit from your answer.

The compound identified as O=C(O)c1cc(/N=N/c2ccc(S(=O)(=O)Nc3ccccn3)cc2)ccc1O [SULFASALAZINE] registered its WBC at 92.9

The compound identified as CCc1cc(C(N)=S)ccn1 [ETHIONAMIDE] registered its WBC at 90.5

The compound identified as O=C(O)c1cn(C2CC2)c2cc(N3CCNCC3)c(F)cc2c1=O [CIPROFLOXACIN] registered its WBC at 106

The compound identified as Clc1ccccc1CN1CCc2sccc2C1 [TICLOPIDINE] registered its WBC at 70.6

----------
Would you kindly list APTT for each of these molecules?
# Species: Rattus norvegicus
# Assay comment: Open TG-GATES - Regimen: Single
# Type: toxicity, organism-based, Sprague-Dawley
# Parameters: regimen Single, gender Male, age 6 weeks
# Condition set: in vivo, po, 0 mg/kg, 6 h, tissue Blood, route gavage, dose level Control
Record the value in s, omitting the unit from your answer.

The molecule identified as `CC(=O)Oc1ccccc1C(=O)O` registered its APTT at 17.7

The molecule identified as CSc1ccc2c(c1)N(CCC1CCCCN1C)c1ccccc1S2 (stereo unspecified) registered its APTT at 16.3

The molecule identified as `COc1ccc(Cc2nccc3cc(OC)c(OC)cc23)cc1OC` registered its APTT at 23

The molecule identified as `Clc1ccccc1CN1CCc2sccc2C1` registered its APTT at 18.7

The molecule identified as `CN(C)CCC=C1c2ccccc2CCc2ccccc21` registered its APTT at 17

The molecule identified as `NC(=O)N/N=C/c1ccc([N+](=O)[O-])o1` registered its APTT at 16.4

The molecule identified as `C[C@H](CS)C(=O)N1CCC[C@H]1C(=O)O` registered its APTT at 15.7

The molecule identified as `Cn1c(=O)c2[nH]cnc2n(C)c1=O.O` registered its APTT at 21.5

The molecule identified as `O=C(O)c1cc(/N=N/c2ccc(S(=O)(=O)Nc3ccccn3)cc2)ccc1O` registered its APTT at 20.7

The molecule identified as NC(=O)N1c2ccccc2C=Cc2ccccc21 [CARBAMAZEPINE] registered its APTT at 19.3

The molecule identified as CCc1cc(C(N)=S)ccn1 [ETHIONAMIDE] registered its APTT at 18.2
